Documented log10(Kd) across a set of binders
- assay.target: HAUSP^62–205 (HAUSP TRAF domain) (UniProt Q93009 62-205)
- Sequence (Q93009 62-205): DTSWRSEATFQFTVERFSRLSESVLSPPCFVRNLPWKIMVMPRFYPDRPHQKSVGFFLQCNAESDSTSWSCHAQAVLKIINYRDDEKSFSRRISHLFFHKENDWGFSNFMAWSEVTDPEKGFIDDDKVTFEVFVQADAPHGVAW
- assay.summary: ITC
Would you kindly interpret these values as log10 of Kd expressed in nM?

Example entries begin here.
1) vIRF4^153–256/Δ202–216/Δ237–256 (domain or fragment) SDTREQSYEEAGAAAPAPPKAPSGLRGRPRKSNRYYNVGDITTEQKAACGSSGTRQVTQASSFTWRVPG    3.61
2) vIRF4^153–216 (domain or fragment) SDTREQSYEEAGAAAPAPPKAPSGLRGRPRKSNRYYNVGDITTEQKAACSVWIPVNEGASTSGM    2.73
3) DLVQELQEEKPSSSHL (peptide, UniProt Q00987 137-152, looked up) [MDM2^137–152 peptide]    4.05
4) vIRF4^153–256/Δ202–216 (domain or fragment) SDTREQSYEEAGAAAPAPPKAPSGLRGRPRKSNRYYNVGDITTEQKAACGSSGTRQVTQASSFTWRVPGDPPAPSTLTGPSDPHSSGAG    3.54

For the binder EQGPADDPGEGPSTG [EBNA1^435–449 peptide] , what log10(Kd) is on record?
2.68

Entry vIRF4^153–256 (domain or fragment) SDTREQSYEEAGAAAPAPPKAPSGLRGRPRKSNRYYNVGDITTEQKAACSVWIPVNEGASTSGMGSSGTRQVTQASSFTWRVPGDPPAPSTLTGPSDPHSSGAG has what log10(Kd)?
1.88

The origin of these recorded values is paper PMC3589550.
